biological target: DgoR (BW WT DgoR) (Escherichia coli, UniProt P31460, A152E); construct: full length (229 aa), C-terminal 6XHis tag, expressed from Ptrc in pRC10 in E. coli BL21(DE3), Co-NTA purified; dimer; assay: label-free microscale thermophoresis
Sequence (P31460 whole entry A152E): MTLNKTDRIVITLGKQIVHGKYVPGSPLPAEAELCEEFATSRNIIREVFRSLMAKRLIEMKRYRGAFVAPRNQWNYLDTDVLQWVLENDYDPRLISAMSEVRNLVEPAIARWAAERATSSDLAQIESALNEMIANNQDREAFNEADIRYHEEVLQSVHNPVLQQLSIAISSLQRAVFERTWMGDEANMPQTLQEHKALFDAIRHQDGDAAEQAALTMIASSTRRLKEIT
METRIC: pKd
One number for each entry, as −log10 of the molar value.

Prompt line: Supply pKd value. Item: O=C(O)[C@H](O)[C@@H](O)[C@@H](O)[C@H](O)CO [D-galactonate]
Response line: 4.95
